These measurements were taken from ChEMBL document CHEMBL4431368.

Molecular target: Phosphatidylinositol 4,5-bisphosphate 3-kinase catalytic subunit beta isoform (Homo sapiens, UniProt P42338)
Sequence (P42338 whole entry, canonical isoform): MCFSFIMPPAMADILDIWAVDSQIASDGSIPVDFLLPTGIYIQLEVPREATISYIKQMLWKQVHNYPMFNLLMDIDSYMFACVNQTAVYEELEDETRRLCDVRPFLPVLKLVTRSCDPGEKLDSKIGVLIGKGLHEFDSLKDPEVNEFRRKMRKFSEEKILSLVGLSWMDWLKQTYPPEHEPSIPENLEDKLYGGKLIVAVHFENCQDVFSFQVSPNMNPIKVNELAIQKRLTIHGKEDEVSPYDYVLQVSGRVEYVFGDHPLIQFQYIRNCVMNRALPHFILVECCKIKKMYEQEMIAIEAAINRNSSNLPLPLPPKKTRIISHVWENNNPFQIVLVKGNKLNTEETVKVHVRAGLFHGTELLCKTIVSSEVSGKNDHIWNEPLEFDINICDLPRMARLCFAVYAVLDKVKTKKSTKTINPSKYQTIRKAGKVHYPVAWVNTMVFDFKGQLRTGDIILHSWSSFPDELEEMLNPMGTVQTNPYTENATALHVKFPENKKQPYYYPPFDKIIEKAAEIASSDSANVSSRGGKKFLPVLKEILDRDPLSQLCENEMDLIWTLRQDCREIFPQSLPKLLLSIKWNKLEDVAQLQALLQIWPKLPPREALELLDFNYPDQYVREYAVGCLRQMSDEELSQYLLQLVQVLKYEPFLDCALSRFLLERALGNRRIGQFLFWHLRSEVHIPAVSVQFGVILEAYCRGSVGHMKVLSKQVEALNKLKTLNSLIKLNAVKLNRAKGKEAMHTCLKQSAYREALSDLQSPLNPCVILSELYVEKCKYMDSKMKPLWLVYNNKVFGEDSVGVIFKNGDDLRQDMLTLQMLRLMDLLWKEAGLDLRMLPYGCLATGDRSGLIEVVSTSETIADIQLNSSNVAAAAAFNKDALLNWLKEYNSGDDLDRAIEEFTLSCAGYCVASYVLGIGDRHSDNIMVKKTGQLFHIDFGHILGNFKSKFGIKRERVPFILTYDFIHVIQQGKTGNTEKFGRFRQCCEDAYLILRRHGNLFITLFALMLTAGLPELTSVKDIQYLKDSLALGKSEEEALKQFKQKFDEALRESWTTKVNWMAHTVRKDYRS
Test: Inhibition of PI3Kbeta (unknown origin) expressed in baculovirus expression system by kinase-glo luminescence assay
MEASUREMENT_TYPE: pIC50
Field pIC50 (float): negative decimal logarithm of the concentration in molar.

Answered cases to consult:
# STRUCTURE_AS_SMILES, MEASUREMENT_TYPE, RECORDED_MEASUREMENT
rows = [
    ("NC(=O)[C@H](CO)NC(=O)C1CCN(c2nc(N3CCOCC3)nc(-n3c(C(F)F)nc4ccccc43)n2)CC1", "pIC50", 6.79),
    ("O=C(CN1CCN(c2nc(N3CCOCC3)nc(-n3c(C(F)F)nc4ccccc43)n2)CC1)[C@H]1CCCN1", "pIC50", 7.22),
    ("NC(=O)[C@H](Cc1ccccc1)NC(=O)[C@H]1CCCN(c2nc(N3CCOCC3)nc(-n3c(C(F)F)nc4ccccc43)n2)C1", "pIC50", 6.47),
    ("N[C@H]1CC[C@@H](C(=O)N2CCN(c3nc(N4CCOCC4)nc(-n4c(C(F)F)nc5ccccc54)n3)CC2)CC1", "pIC50", 5.47),
]

*Q* GET /values?readout=pIC50&item= `O=C(O)[C@@H]1CCCN(c2nc(N3CCOCC3)nc(-n3c(C(F)F)nc4ccccc43)n2)C1`
*A* 6.37

*Q* GET /values?readout=pIC50&item= `O=C(O)C1CCN(c2nc(N3CCOCC3)nc(-n3c(C(F)F)nc4ccccc43)n2)CC1`
*A* 6.66

*Q* GET /values?readout=pIC50&item= `C[C@H](NC(=O)C1CCN(c2nc(N3CCOCC3)nc(-n3c(C(F)F)nc4ccccc43)n2)CC1)C(N)=O`
*A* 6.68

*Q* GET /values?readout=pIC50&item= `C[C@@H](NC(=O)C1CCN(c2nc(N3CCOCC3)nc(-n3c(C(F)F)nc4ccccc43)n2)CC1)C(N)=O`
*A* 6.22

*Q* GET /values?readout=pIC50&item= `O=C([C@@H]1CCCCN1)N1CCN(c2nc(N3CCOCC3)nc(-n3c(C(F)F)nc4ccccc43)n2)CC1`
*A* 7.23

---

Each item that follows carries a reported pIC50.
Target: Phosphatidylinositol 4,5-bisphosphate 3-kinase catalytic subunit delta isoform (Homo sapiens, UniProt O00329, N836D)
Sequence (O00329 whole entry N836D, canonical isoform): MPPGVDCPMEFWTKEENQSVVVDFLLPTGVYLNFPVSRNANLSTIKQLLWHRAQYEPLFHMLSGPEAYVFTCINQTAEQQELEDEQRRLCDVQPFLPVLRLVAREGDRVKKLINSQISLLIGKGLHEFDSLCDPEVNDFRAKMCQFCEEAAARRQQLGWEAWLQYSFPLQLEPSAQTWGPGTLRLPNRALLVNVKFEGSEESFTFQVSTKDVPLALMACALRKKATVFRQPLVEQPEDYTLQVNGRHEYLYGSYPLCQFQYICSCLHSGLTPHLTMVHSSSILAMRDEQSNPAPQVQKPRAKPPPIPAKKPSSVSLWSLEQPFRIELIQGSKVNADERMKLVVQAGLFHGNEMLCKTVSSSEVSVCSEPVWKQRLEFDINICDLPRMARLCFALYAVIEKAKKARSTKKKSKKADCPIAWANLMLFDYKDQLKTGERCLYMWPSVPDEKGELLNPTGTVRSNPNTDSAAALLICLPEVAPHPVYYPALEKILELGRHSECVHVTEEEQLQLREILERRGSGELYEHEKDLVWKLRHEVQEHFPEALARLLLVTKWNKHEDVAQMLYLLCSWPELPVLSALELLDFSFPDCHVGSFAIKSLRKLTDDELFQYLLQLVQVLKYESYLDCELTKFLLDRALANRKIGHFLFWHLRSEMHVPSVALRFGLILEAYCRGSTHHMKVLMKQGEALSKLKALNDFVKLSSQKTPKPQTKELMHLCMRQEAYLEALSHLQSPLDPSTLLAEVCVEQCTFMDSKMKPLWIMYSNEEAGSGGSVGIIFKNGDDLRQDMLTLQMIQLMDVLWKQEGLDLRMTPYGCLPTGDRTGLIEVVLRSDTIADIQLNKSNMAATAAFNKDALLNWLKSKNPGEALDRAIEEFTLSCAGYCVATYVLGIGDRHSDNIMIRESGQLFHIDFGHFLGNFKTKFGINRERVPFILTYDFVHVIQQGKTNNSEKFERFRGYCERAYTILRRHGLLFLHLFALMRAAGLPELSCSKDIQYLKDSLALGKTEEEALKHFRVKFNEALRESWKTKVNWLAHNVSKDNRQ
Assay: Inhibition of PI3Kdelta N836D mutant (unknown origin) expressed in Sf21 cells co-expressing p85 by kinase-glo luminescence assay
Field pIC50 (float): negative decimal logarithm of the concentration in molar.

*Q* GET /values?readout=pIC50&item= `O=C([C@H]1CCCCN1)N1CCN(c2nc(N3CCOCC3)nc(-n3c(C(F)F)nc4ccccc43)n2)CC1`
*A* 7.44

*Q* GET /values?readout=pIC50&item= `O=C(CN1CCN(c2nc(N3CCOCC3)nc(-n3c(C(F)F)nc4ccccc43)n2)CC1)[C@H]1CCCN1`
*A* 8.40

*Q* GET /values?readout=pIC50&item= `NC(=O)CNC(=O)[C@H]1CCCN(c2nc(N3CCOCC3)nc(-n3c(C(F)F)nc4ccccc43)n2)C1`
*A* 7.02

*Q* GET /values?readout=pIC50&item= `NC(=O)CNC(=O)C1CCN(c2nc(N3CCOCC3)nc(-n3c(C(F)F)nc4ccccc43)n2)CC1`
*A* 6.77

---

Biological target: Phosphatidylinositol 4,5-bisphosphate 3-kinase catalytic subunit gamma isoform (Homo sapiens)
Assay: Inhibition of PI3Kgamma (unknown origin) expressed in baculovirus expression system by kinase-glo luminescence assay
MEASUREMENT_TYPE: IC50 (nM)
Form entry: value (nM) — number only.

Answered cases to consult:
# STRUCTURE_AS_SMILES, IC50 / nM
records = [
    ("NC(=O)CNC(=O)[C@@H]1CCCN(c2nc(N3CCOCC3)nc(-n3c(C(F)F)nc4ccccc43)n2)C1", 445),
    ("NC(=O)CNC(=O)[C@H]1CCCN(c2nc(N3CCOCC3)nc(-n3c(C(F)F)nc4ccccc43)n2)C1", 194),
    ("O=C([C@@H]1CCCCN1)N1CCN(c2nc(N3CCOCC3)nc(-n3c(C(F)F)nc4ccccc43)n2)CC1", 5530),
    ("C[C@H](NC(=O)C1CCN(c2nc(N3CCOCC3)nc(-n3c(C(F)F)nc4ccccc43)n2)CC1)C(N)=O", 434),
    ("CC(C)[C@H](NC(=O)C1CCN(c2nc(N3CCOCC3)nc(-n3c(C(F)F)nc4ccccc43)n2)CC1)C(N)=O", 440),
]

*Q* GET /values?readout=IC50&item= `O=C([C@H]1CCCN1)N1CCN(c2nc(N3CCOCC3)nc(-n3c(C(F)F)nc4ccccc43)n2)CC1`
*A* 5860

*Q* GET /values?readout=IC50&item= `O=C(CN1CCN(c2nc(N3CCOCC3)nc(-n3c(C(F)F)nc4ccccc43)n2)CC1)[C@H]1CCCN1`
*A* 6080

---

Each item that follows carries a reported IC50.
Target: Phosphatidylinositol 4,5-bisphosphate 3-kinase catalytic subunit gamma isoform (Homo sapiens, UniProt P48736)
Sequence (P48736 whole entry, canonical isoform): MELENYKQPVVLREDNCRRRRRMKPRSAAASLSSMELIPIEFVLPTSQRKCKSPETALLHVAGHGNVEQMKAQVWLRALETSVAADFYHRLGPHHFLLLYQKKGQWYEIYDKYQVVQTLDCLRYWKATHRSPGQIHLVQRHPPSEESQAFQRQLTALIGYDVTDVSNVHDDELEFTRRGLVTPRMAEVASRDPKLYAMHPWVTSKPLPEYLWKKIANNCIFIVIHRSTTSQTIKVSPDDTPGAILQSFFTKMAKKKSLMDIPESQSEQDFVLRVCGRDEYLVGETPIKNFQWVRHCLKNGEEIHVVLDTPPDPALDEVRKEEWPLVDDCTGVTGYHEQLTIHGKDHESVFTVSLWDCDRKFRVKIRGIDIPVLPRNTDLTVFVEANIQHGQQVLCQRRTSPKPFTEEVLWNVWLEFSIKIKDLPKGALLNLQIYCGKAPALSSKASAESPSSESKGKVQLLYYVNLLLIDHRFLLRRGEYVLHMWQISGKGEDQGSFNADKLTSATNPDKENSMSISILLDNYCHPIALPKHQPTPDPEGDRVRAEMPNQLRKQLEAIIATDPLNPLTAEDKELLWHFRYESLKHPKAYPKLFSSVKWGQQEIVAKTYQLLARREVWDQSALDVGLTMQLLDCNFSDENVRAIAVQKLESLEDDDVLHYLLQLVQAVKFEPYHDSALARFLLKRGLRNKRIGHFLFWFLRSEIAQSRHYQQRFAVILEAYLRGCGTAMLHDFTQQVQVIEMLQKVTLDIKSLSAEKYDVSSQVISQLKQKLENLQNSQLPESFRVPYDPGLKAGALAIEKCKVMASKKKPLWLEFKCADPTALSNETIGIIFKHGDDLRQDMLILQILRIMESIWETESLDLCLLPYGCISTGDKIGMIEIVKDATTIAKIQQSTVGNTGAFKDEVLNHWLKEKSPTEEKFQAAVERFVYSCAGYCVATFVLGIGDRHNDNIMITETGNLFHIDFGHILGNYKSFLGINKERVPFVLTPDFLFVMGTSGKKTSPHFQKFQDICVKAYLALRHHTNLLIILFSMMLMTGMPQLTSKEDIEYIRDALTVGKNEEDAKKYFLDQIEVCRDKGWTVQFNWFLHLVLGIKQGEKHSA
Test: Inhibition of PI3Kgamma (unknown origin) expressed in baculovirus expression system by kinase-glo luminescence assay
Form entry: value (nM) — number only.

# STRUCTURE_AS_SMILES, MEASUREMENT_TYPE, UNIT, RECORDED_MEASUREMENT
records = [
    ("NC(=O)[C@H](Cc1ccccc1)NC(=O)[C@@H]1CCCN(c2nc(N3CCOCC3)nc(-n3c(C(F)F)nc4ccccc43)n2)C1", "IC50", "nM", 1380),
    ("O=C(O)[C@H]1CCCN(c2nc(N3CCOCC3)nc(-n3c(C(F)F)nc4ccccc43)n2)C1", "IC50", "nM", 231),
    ("NC(=O)[C@H](CO)NC(=O)C1CCN(c2nc(N3CCOCC3)nc(-n3c(C(F)F)nc4ccccc43)n2)CC1", "IC50", "nM", 521),
]

Note: attention shifts to another entry.
*Q* GET /values?readout=IC50&item= `O=C([C@H]1CCCCN1)N1CCN(c2nc(N3CCOCC3)nc(-n3c(C(F)F)nc4ccccc43)n2)CC1`
*A* 3590

---

Molecular target: Phosphatidylinositol 4,5-bisphosphate 3-kinase catalytic subunit alpha isoform (Homo sapiens, UniProt P42336)
Sequence (P42336 whole entry, canonical isoform): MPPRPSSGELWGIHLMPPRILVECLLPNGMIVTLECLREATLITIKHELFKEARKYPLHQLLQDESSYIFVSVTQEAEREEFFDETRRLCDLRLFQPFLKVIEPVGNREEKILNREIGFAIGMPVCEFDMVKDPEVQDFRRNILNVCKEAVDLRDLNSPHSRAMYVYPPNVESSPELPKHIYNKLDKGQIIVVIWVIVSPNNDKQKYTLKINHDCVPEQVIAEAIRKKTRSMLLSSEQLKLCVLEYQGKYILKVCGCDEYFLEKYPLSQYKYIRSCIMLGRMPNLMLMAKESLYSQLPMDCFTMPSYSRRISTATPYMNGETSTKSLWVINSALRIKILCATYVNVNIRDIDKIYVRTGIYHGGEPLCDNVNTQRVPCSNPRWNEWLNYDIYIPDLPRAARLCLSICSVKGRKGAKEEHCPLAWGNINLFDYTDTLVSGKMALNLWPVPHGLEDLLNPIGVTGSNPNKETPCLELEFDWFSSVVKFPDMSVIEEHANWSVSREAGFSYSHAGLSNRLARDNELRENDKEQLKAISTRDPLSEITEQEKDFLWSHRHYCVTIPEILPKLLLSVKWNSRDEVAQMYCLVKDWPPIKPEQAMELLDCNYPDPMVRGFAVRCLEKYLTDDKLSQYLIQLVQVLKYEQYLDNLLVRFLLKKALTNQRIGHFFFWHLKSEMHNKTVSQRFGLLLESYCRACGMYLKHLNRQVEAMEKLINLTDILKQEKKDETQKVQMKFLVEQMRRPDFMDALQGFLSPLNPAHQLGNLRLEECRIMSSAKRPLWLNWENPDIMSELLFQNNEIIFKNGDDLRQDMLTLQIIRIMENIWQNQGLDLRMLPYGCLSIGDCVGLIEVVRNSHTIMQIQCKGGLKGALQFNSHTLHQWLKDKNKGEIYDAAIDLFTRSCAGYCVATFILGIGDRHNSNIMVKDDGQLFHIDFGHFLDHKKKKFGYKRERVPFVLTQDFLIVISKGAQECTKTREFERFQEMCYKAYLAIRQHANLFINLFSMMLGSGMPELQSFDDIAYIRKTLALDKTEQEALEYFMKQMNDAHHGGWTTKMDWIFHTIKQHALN
Assay: Inhibition of PI3Kalpha (unknown origin) expressed in baculovirus expression system by kinase-glo luminescence assay
Each item that follows carries a reported log10 of IC50.
Hi team, quick reminder: these entries are log10 of IC50 (nM).

Answered cases to consult:
# STRUCTURE_AS_SMILES, RECORDED_MEASUREMENT
measured = [
    ("C[C@@H](NC(=O)C1CCN(c2nc(N3CCOCC3)nc(-n3c(C(F)F)nc4ccccc43)n2)CC1)C(N)=O", 2.06),
    ("N[C@H]1CC[C@@H](C(=O)N2CCN(c3nc(N4CCOCC4)nc(-n4c(C(F)F)nc5ccccc54)n3)CC2)CC1", 3.59),
    ("O=C([C@H]1CCCN1)N1CCN(c2nc(N3CCOCC3)nc(-n3c(C(F)F)nc4ccccc43)n2)CC1", 3.42),
]

*Q* GET /values?readout=log10 of IC50&item= `NC(=O)[C@H](CO)NC(=O)C1CCN(c2nc(N3CCOCC3)nc(-n3c(C(F)F)nc4ccccc43)n2)CC1`
*A* 1.83

*Q* GET /values?readout=log10 of IC50&item= `NC(=O)CNC(=O)C1CCN(c2nc(N3CCOCC3)nc(-n3c(C(F)F)nc4ccccc43)n2)CC1`
*A* 1.99

*Q* GET /values?readout=log10 of IC50&item= `NC(=O)[C@H](Cc1ccccc1)NC(=O)[C@H]1CCCN(c2nc(N3CCOCC3)nc(-n3c(C(F)F)nc4ccccc43)n2)C1`
*A* 2.55

*Q* GET /values?readout=log10 of IC50&item= `O=C(O)[C@H]1CCCN(c2nc(N3CCOCC3)nc(-n3c(C(F)F)nc4ccccc43)n2)C1`
*A* 1.60

*Q* GET /values?readout=log10 of IC50&item= `O=C(O)C1CCN(c2nc(N3CCOCC3)nc(-n3c(C(F)F)nc4ccccc43)n2)CC1`
*A* 2.26

*Q* GET /values?readout=log10 of IC50&item= `O=C(C[C@@H]1CCCN1)N1CCN(c2nc(N3CCOCC3)nc(-n3c(C(F)F)nc4ccccc43)n2)CC1`
*A* 3.31

---

Biological target: Phosphatidylinositol 4,5-bisphosphate 3-kinase catalytic subunit gamma isoform (Homo sapiens)
Assay: Inhibition of PI3Kgamma (unknown origin) expressed in baculovirus expression system by kinase-glo luminescence assay
MEASUREMENT_TYPE: pIC50
Field pIC50 (float): negative decimal logarithm of the concentration in molar.

Answered cases to consult:
# STRUCTURE_AS_SMILES, pIC50
rows = [
    ("O=C(O)[C@@H]1CCCN(c2nc(N3CCOCC3)nc(-n3c(C(F)F)nc4ccccc43)n2)C1", 6.61),
    ("C[C@@H](NC(=O)C1CCN(c2nc(N3CCOCC3)nc(-n3c(C(F)F)nc4ccccc43)n2)CC1)C(N)=O", 6.27),
    ("O=C(O)C1CCN(c2nc(N3CCOCC3)nc(-n3c(C(F)F)nc4ccccc43)n2)CC1", 7.19),
]

*Q* GET /values?readout=pIC50&item= `O=C(C[C@@H]1CCCN1)N1CCN(c2nc(N3CCOCC3)nc(-n3c(C(F)F)nc4ccccc43)n2)CC1`
*A* 5.24

*Q* GET /values?readout=pIC50&item= `NC(=O)[C@H](Cc1ccccc1)NC(=O)C1CCN(c2nc(N3CCOCC3)nc(-n3c(C(F)F)nc4ccccc43)n2)CC1`
*A* 6.15

*Q* GET /values?readout=pIC50&item= `NC(=O)[C@H](Cc1ccccc1)NC(=O)[C@H]1CCCN(c2nc(N3CCOCC3)nc(-n3c(C(F)F)nc4ccccc43)n2)C1`
*A* 5.70

*Q* GET /values?readout=pIC50&item= `NC(=O)CNC(=O)C1CCN(c2nc(N3CCOCC3)nc(-n3c(C(F)F)nc4ccccc43)n2)CC1`
*A* 6.30
